# Tested on: T47D
# test summary: NCI tumour cell line growth inhibition, 48 h
Activity calls are given as the source filed them. Rule as the data show it: active = GI50 up to about 1.1 µM and inactive = higher.
The reply should name one outcome from active, inactive

Would you please look over these solved cases?
INSERT INTO assay_data (molecule, class_label) VALUES
  ('CC(=O)Nc1ccc(N2C(=O)CS(=O)(=O)C2c2cccc(Oc3ccccc3)c2)cc1 (configuration not stated)', 'inactive'),
  ('COc1ccccc1-n1nnc2c(N)nc(N)nc21', 'inactive'),
  ('COc1ccc2oc(=O)c(-c3csc(-c4ccccc4)n3)cc2c1', 'inactive'),
  ('COC(=O)c1ccc(C(=O)NC(Cc2ccc(Oc3cc(CC(NC(=O)c4ccccc4C(=O)OC)C(=O)OC)ccc3OC)cc2)C(=O)OC)cc1 (configuration not stated)', 'inactive'),
  ('CS/C(N)=N/c1cccc2ccccc12', 'inactive');

Hello, I am checking results. What call was entered for `C/C(=N\Nc1nc2ccccc2n1C)c1cnccn1` ?
active

What classification did `O=C1OC2(CCCCC2)C(Oc2ccc(Cl)cc2)=C1F` end up with in this test?
inactive

Called result for `CC(C)C(O)(C(C)C)C(C)C`
inactive

Recorded test call requested for C[C@@H](C1CC[C@H]2[C@@H]3[C@@H]4O[C@@H]4[C@@]4(O)CC=CC(=O)[C@]4(C)[C@H]3C[C@H](O)[C@]12C)[C@H]1C[C@]2(C)O[C@]2(C)C(=O)O1 (some centres not stated)
inactive

====

# System: KM12
# test summary: NCI tumour cell line growth inhibition, 48 h
The source made the active and inactive calls. Rule as the data show it: active = GI50 up to about 1.1 µM and inactive = higher.
Thanks in advance; please answer with one of these: active, inactive

INSERT INTO results (molecule, class_label) VALUES
  ('C/C(=N\Nc1nc2ccccc2n1C)c1cnccn1', 'active'),
  ('CC1=C(C)C(=O)C(C2=CC(=O)c3ccccc3C2=O)=C(C2=CC(=O)c3ccccc3C2=O)C1=O', 'inactive'),
  ('COc1ccccc1-n1nnc2c(N)nc(N)nc21', 'inactive'),
  ('Cn1nc2ccccc2cc1=O', 'inactive'),
  ('CC(NC1=CC(=O)c2ncccc2C1=O)C(O)c1ccccc1 (stereo not given)', 'inactive');

Given C[C@H]1COC2=C1C(=O)C(=O)c1c2ccc2c1CCCC2(C)C [CRYPTOTANSHINONE] , state the outcome it received in this test.
inactive

// outcome(item) with item = `O=c1[nH]nc(Cc2ccccc2)n1/N=C/c1ccco1`
inactive

Could you check what this test reported for `CC(=O)OCC(=O)OC[C@H](OCc1ccccc1)[C@@H]1[C@H](OC(C)=O)C(=O)N1Cc1ccccc1` ?
inactive

// param item: N#CC1=C(N)OC2=C(CCCc3ccccc32)C1c1ccc([N+](=O)[O-])cc1 (stereo not given) ; yields the recorded call
inactive

Called result for `O=c1[nH]n(CCc2ccccc2CCl)c2ccc([N+](=O)[O-])cc12`
inactive

====

# Test system: KM12
# test summary: NCI tumour cell line growth inhibition, 48 h
Active and inactive are the calls of the source. Cut-off read from the data, not from the text of the source: active = GI50 up to about 1.1 µM and inactive = higher.
A correct response names exactly one class from active, inactive

Record request — test call for CC1CC(c2ccc([N+](=O)[O-])cc2)=Nc2ccccc2[S+]1[O-] (stereo not given)
inactive

====

# Test system: COLO 205
# test summary: NCI tumour cell line growth inhibition, 48 h
Active and inactive are the calls of the source. No stated cut-off is given here; in the data, active = GI50 up to about 1.1 µM and inactive = higher.
measurement kind: GI50

Some molecules with known GI50 results, for comparison:
INSERT INTO assay_data (molecule, target_or_system, measured_value) VALUES
  ('OCC1OC(N2CCN(C3OC(CO)C(O)C(O)C3O)CC2)C(O)C(O)C1O (stereo not given)', 'COLO 205', '> 100 µM (inactive)'),
  ('COc1ccc(C2=C(N)c3cc(OC)ccc3C2=O)cc1', 'COLO 205', '> 100 µM (inactive)'),
  ('COc1cc(/C=C\c2ccccc2)cc(OC)c1OC', 'COLO 205', '3.08 µM (inactive)'),
  ('CSc1nc(NC2OCC(OC(C)=O)C(OC(C)=O)C2OC(C)=O)c(/N=C\C=N\c2c(NC3OCC(OC(C)=O)C(OC(C)=O)C3OC(C)=O)nc(SC)n(C)c2=O)c(=O)n1C (stereo not given)', 'COLO 205', '> 100 µM (inactive)');

Need GI50, item CC(=O)c1c(C)cc2cccc(OC3OC(CO)C(O)C(O)C3O)c2c1O.CC1OC(O)C(O)C(O)C1O (stereo not given)
> 100 µM (inactive)

====

# Tested on: NCI-H23
# test summary: NCI tumour cell line growth inhibition, 48 h
The source made the active and inactive calls. Cut-off read from the data, not from the text of the source: active = GI50 up to about 1.1 µM and inactive = higher.
Allowed answers: active, inactive

Use these answered entries as a reference point.
INSERT INTO assay_data (compound, class_label) VALUES
  ('CCOC(=O)c1[nH]c(COC(C)=O)c2c1CCCCCCCCCC2', 'inactive'),
  ('C/C(=N\Nc1nc2ccccc2n1C)c1cnccn1', 'active'),
  ('CC1CNC(c2ccc3c(c2)Cc2cc(C4=NC(C)CN4)ccc2-3)=N1 (stereo unspecified)', 'inactive'),
  ('S=c1c2cc(I)ccc2nc(S)n1Cc1ccccc1', 'inactive'),
  ('O=[N+]([O-])c1cccc(/N=C2\c3ccccc3CN2c2cccc([N+](=O)[O-])c2)c1', 'inactive');

// param item: OC12CC/C(=N/OCc3ccccc3)CC1c1ccccc12 (stereo unspecified) ; yields the recorded call
inactive

For this compound, state the assay outcome: COc1ccc(N2C(=O)C3c4[nH]c5ccccc5c4C4CCC(C(C)(C)C)CC4C3C2=O)cc1OC (stereo unspecified)
inactive

====

# Tested on: CCRF-CEM
# test summary: NCI tumour cell line growth inhibition, 48 h
Calls of active or inactive are those of the source. No stated cut-off is given here; in the data, active = GI50 up to about 1.1 µM and inactive = higher.
Hi there, use one of these labels in your reply, thanks! active, inactive

See these solved cases before continuing.
INSERT INTO results (molecule, class_label) VALUES
  ('CC(=O)O[C@H]1C(=O)[C@@]2(C)[C@H]([C@H](OC(=O)c3ccncc3)[C@]3(O)C[C@H](OC(=O)[C@H](O)[C@@H](NC(=O)c4ccccc4)c4ccccc4)C(C)=C1C3(C)C)[C@]1(OC(C)=O)CO[C@@H]1C[C@@H]2O', 'active'),
  ('Cc1nc(C(N)=S)sc1C(=O)/C=C/c1cccc(O)c1', 'inactive'),
  ('S=C(N/N=C/c1ccccn1)N1CCCCC1', 'active'),
  ('COc1cc2c3c4c1OCc1c5c(cc(c1-4)CC3[N+](C)(C)CC2)OCO5 (stereo not given)', 'inactive');

Hey, what did the test say about CCCCCCNC(=O)C(C)C1CCC2(C)C=CC(=O)C(C)=C2C1O (stereo not given) ?
inactive

Would you mind telling me which call this test gave N#CC1(Cc2ccccc2)CCCCN1C(=O)c1ccccc1 (stereo not given) ?
inactive

Outcome logged for `CC(C)=CC(=O)c1c(C(=O)O)nc2ccccc2[n+]1[O-]` in this assay:
inactive

====

# Tested on: NCI-H460
# test summary: NCI tumour cell line growth inhibition, 48 h
Calls of active or inactive are those of the source. Rule as the data show it: active = GI50 up to about 1.1 µM and inactive = higher.
This section presents compounds with their documented GI50 values.

INSERT INTO measurements (compound, measured_value) VALUES
  ('OC12CC/C(=N/OCc3ccccc3)CC1c1ccccc12 (configuration not stated)', '> 100 µM (inactive)'),
  ('CCCCCCCCCCCCCCCCOC[C@H](COC(c1ccccc1)(c1ccccc1)c1ccccc1)O[PH](=S)OC (some centres not stated)', '> 100 µM (inactive)'),
  ('CNc1nc(N)nc(Nc2ccc(I)cc2)c1N=O', '> 100 µM (inactive)');

Name the recorded GI50 for CCOc1ccc(NC(=O)CC2Sc3ccccc3NC2=O)cc1 (configuration not stated) .
90.2 µM (inactive)

Requested field: GI50. Item: `COc1ccc(-c2nc(N3CCCC3)no2)cc1`
33 µM (inactive)

Could you share which GI50 value was measured for `CC(C)N1C=[N+](C(C)C)CC1` ?
> 100 µM (inactive)

Given the entry CC(=O)O[C@H]1CC[C@H]2[C@@H]3CCC4=C(C(=O)C=CC4(C)OC(C)=O)[C@H]3CC[C@]12C (some centres not stated) , report its measured GI50.
42.3 µM (inactive)

Consider the compound shown here: `Clc1ccc(OCc2nnc(COc3ccc(OCc4nnc(COc5ccc(Cl)cc5Cl)o4)c(Cl)c3)o2)c(Cl)c1` What is its recorded GI50?
72.4 µM (inactive)

Fill in: GI50 of N#C/C(=C1\SC(/N=N/c2ccc(Cl)cc2)C(=O)N1c1ccccc1)c1nc2ccccc2[nH]1 (configuration not stated) is ___
33.7 µM (inactive)

====

# Test system: EKVX
# test summary: NCI tumour cell line growth inhibition, 48 h
Active and inactive are the calls of the source. Rule as the data show it: active = GI50 up to about 1.1 µM and inactive = higher.
measurement kind: GI50

// below: answered compounds
INSERT INTO measurements (compound, measurement_kind, measured_value) VALUES
  ('CCOC(=O)c1sc2nc(SC)nc3c2c1NCN3c1ccc2c(c1)OCO2', 'GI50', '42.2 µM (inactive)'),
  ('CN(C)c1nc(Cl)c2c(-c3ccccc3)c(-c3ccccc3)oc2n1', 'GI50', '> 100 µM (inactive)'),
  ('CN1CCC(C(=O)NNc2ccccc2)CC1', 'GI50', '34.5 µM (inactive)'),
  ('Cc1ccccc1OC(C)C(=O)NN1C(=O)CC(=O)N(c2ccc(Cl)cc2)C1=S (stereo unspecified)', 'GI50', '41.7 µM (inactive)'),
  ('C#CCN(N=O)C(=O)NCCCC(NC(C)=O)C(=O)NCc1ccccc1 (stereo unspecified)', 'GI50', '> 100 µM (inactive)');

Proceeding to the next compound to report its GI50.
Returns the measured GI50 for the input compound. Input: `Clc1cc(OC23CC4CC(CC(C4)C2)C3)nc(Cl)n1`
37.5 µM (inactive)
